System: HepG2
Test: GSK_TCMDC: Percent inhibition of human HepG2 cell line. Test compounds present at 10uM.
Format: functional
Quick rule for you: Inhibition at 5% or higher means Y, lower means N.

Please review the following examples before continuing.
INSERT INTO measurements (compound, assigned_class) VALUES
  ('CCC(C)CN1CCC(N(C)c2cc(NC(=O)c3ccc(F)cc3)ccn2)CC1.O=C(O)C(F)(F)F (configuration not stated)', 'N'),
  ('O=C(O)C(F)(F)F.O=C(c1cccs1)N(Cc1cccc(-c2ccc(CNC3CCCC3)cc2)c1)C1CCN(Cc2ccccc2)CC1', 'Y'),
  ('CCCCCCCN1C2CCC1CC(CCOc1ccnc3ccc(OC)cc13)C2 (configuration not stated)', 'Y');

Input: I'd appreciate it if you could say whether "CNC(=O)c1ccc2[nH]cc(C3CCN(CC4CCN(C(=O)/C=C/c5ccc(Cl)c(Cl)c5)CC4)CC3)c2c1" has Inhibition at least equal to 5%.
Output: N

Input: I'd appreciate it if you could say whether COC(=O)c1ccc(CC(C)NCC(O)c2cccc3ccccc23)cc1 (configuration not stated) has Inhibition at least equal to 5%.
Output: N

Input: I'd appreciate it if you could say whether Cl.OC(CNC1CCCCCC1)c1ccc(Cl)c(Cl)c1 (configuration not stated) has Inhibition at least equal to 5%.
Output: N

Input: I'd appreciate it if you could say whether COc1ccccc1CNCC(O)c1cc(C(F)(F)F)ccc1C(F)(F)F (configuration not stated) has Inhibition at least equal to 5%.
Output: Y

Input: I'd appreciate it if you could say whether Cc1ccc(-n2nc(C)c3c2NC(=O)CSC3c2ccsc2)cc1 (configuration not stated) has Inhibition at least equal to 5%.
Output: N

Input: I'd appreciate it if you could say whether CC(Cc1ccc(-c2nc3ccccc3[nH]2)cc1)NCC(O)c1cccc(C(F)(F)F)c1 (configuration not stated) has Inhibition at least equal to 5%.
Output: Y

Input: I'd appreciate it if you could say whether "COc1ccc(N(c2nc(-c3cc(Cl)ccc3Cl)cs2)C2CCNCC2)cc1.O=C(O)C(F)(F)F" has Inhibition at least equal to 5%.
Output: Y

Input: I'd appreciate it if you could say whether COc1ccc(OC)c(C=CC(=O)NC2CCC(CN3CCC(c4c[nH]c5ccccc45)CC3)CC2)c1 (configuration not stated) has Inhibition at least equal to 5%.
Output: Y

Input: I'd appreciate it if you could say whether "COCCNCc1cccc(-c2ccc(CN(C(=O)Nc3ccccc3)C3CCN(Cc4ccccc4)CC3)cc2)c1.O=C(O)C(F)(F)F" has Inhibition at least equal to 5%.
Output: Y

----------
Test system: Plasmodium falciparum
Experiment: GSK_TCMDC: Inhibition of Plasmodium falciparum Dd2 in whole red blood cells, using parasite LDH activity as an index of growth. Test compounds present at 2uM
Type: functional
measurement-kind: Inhibition (%)
Give the number; % is assumed, so skip it.

Solved entries:
INSERT INTO results (molecule, numeric_value) VALUES
  ('Cc1ccc(-n2nc(C)c3c2NC(=O)CSC3c2ccsc2)cc1 (stereo not given)', 11),
  ('CCCCCCCN1C2CCC1CC(CCOc1ccnc3ccc(OC)cc13)C2 (stereo not given)', 88),
  ('COc1ccc(C(=O)C2CC2CN2CC=C(c3c[nH]c4ccc(OC)nc34)CC2)cc1 (stereo not given)', 91),
  ('Oc1cccc(C2CCCN(Cc3cccc4cc[nH]c34)C2)c1 (stereo not given)', 82);

Could you now consider this next molecule?
Input: Look up Inhibition of COc1ccc(OC)c(CNCC(O)c2cc(C(F)(F)F)cc(C(F)(F)F)c2)c1 (stereo not given) and report it.
Output: 100
